Reference source for all entries: patent US20240067734A1

target.or.test.system: T1, human NKG2D expressed on cells (human, UniProt P26718 1-216)
T1 construct: the cell type is named under assay; also called NKG2D on NK92 cells; HEK293T human NKG2D
T1 chain: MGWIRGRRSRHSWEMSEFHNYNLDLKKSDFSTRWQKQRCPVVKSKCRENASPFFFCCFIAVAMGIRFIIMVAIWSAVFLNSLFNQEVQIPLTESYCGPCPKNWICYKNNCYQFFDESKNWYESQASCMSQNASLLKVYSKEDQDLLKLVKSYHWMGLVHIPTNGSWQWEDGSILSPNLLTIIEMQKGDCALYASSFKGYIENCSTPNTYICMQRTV
protocol: cell ELISA; HEK293T expressing human NKG2D and DAP10
OD max reference
measurement.type: OD max (OD)

binder	result.unit	data.value
anti-NKG2D antibody clone 018 (antibody, V domains shown, From transgenic rabbits) VH: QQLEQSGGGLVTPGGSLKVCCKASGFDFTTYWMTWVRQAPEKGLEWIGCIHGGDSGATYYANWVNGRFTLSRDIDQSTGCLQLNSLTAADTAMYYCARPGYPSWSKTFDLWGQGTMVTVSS VL: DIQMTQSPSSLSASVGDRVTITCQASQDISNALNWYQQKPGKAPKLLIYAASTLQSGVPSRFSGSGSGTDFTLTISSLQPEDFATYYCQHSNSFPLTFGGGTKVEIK	OD	0.8
anti-NKG2D antibody clone 296 (antibody, V domains shown, From transgenic rabbits) VH: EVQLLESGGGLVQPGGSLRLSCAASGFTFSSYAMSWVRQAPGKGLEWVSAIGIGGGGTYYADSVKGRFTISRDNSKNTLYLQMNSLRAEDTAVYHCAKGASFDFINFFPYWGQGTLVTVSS VL: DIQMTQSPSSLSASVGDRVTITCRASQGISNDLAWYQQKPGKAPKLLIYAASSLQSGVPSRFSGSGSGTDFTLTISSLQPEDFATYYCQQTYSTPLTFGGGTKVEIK	OD	0.5
anti-NKG2D antibody clone 230 (antibody, V domains shown, From transgenic rabbits) VH: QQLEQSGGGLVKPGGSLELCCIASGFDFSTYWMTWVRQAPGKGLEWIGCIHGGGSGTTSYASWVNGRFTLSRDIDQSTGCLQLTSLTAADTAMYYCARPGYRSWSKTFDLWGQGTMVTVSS VL: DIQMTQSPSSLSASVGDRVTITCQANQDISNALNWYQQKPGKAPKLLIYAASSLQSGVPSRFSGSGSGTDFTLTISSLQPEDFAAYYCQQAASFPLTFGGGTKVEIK	OD	0.7
